# EXPERIMENTAL_SYSTEM: PIWI peptide with HP2 pentamer, N-terminal fluorescein (D. melanogaster)
# RUN_DESCRIPTION: fluorescence polarisation
REPORTED_METRIC: Kd (µM)
One number for each entry, in µM.

Lookup result for HP1a-CSD (residues 131-206), wild type (domain or fragment) EQDTIPVSGSTGFDRGLEAEKILGASDNNGRLTFLIQFKGVDQAEMVPSSVANEKIPRMVIHFYEERLSWYSDNED ; measured Kd: 21.3

Taken from paper PMC3154745.
